- assayed target: SARS-CoV-2 Mac1 (Severe acute respiratory syndrome coronavirus 2)
- protocol notes: biochemical
- test settings: read-out: %inhibition
Counter-ions that a name gives are not always drawn.

{"compound": "CN(C)CCOc1ccc(/C(=C(/CCCl)c2ccccc2)c2ccccc2)cc1 [Toremifene Citrate]", "units text": "%", "inhibition at 100 µM": 21.7}
{"compound": "O=C(O)c1ccccc1OP(=O)(O)O", "units text": "%", "inhibition at 100 µM": 4.81}
{"compound": "COC[C@H]1C[C@@H](c2nc(-c3ccc4c(c3)COc3cc5c(ccc6nc([C@@H]7CC[C@H](C)N7C(=O)[C@@H](NC(=O)OC)C(C)C)[nH]c65)cc3-4)c[nH]2)N(C(=O)[C@H](NC(=O)OC)c2ccccc2)C1", "units text": "%", "inhibition at 100 µM": 3.54}
{"compound": "C=CC[N+]1([C@H]2C[C@H]3[C@@H]4CC[C@H]5C[C@H](O)[C@@H](N6CCOCC6)C[C@]5(C)[C@H]4CC[C@]3(C)[C@H]2OC(C)=O)CCCC1 [Rocuronium Bromide]", "units text": "%", "inhibition at 100 µM": 0}
{"compound": "CC(C)OC(=O)OCOP(=O)(CO[C@H](C)Cn1cnc2c(N)ncnc21)OCOC(=O)OC(C)C [Tenofovir Disoproxil Fumarate]", "units text": "%", "inhibition at 100 µM": 0}
{"compound": "CN(C)CCC[C@@]1(c2ccc(F)cc2)OCc2cc(C#N)ccc21 [Escitalopram Oxalate]", "units text": "%", "inhibition at 100 µM": 0}
{"compound": "C[C@]1(Cn2ccnn2)[C@H](C(=O)O)N2C(=O)C[C@H]2S1(=O)=O", "units text": "%", "inhibition at 100 µM": 6.81}
{"compound": "CN1C(=O)CCS(=O)(=O)C1c1ccc(Cl)cc1 (centres unmarked)", "units text": "%", "inhibition at 100 µM": 20.4}
{"compound": "COCC1=C(C(=O)OC(C)OC(=O)OC(C)C)N2C(=O)[C@@H](NC(=O)/C(=N\\OC)c3csc(N)n3)[C@H]2SC1 (some centres unmarked)", "units text": "%", "inhibition at 100 µM": 13.2}
{"compound": "CC(=O)OCC1=C(C(=O)O)N2C(=O)[C@@H](NC(=O)Cc3cccs3)[C@H]2SC1", "units text": "%", "inhibition at 100 µM": 8.54}
{"compound": "CCn1cc(C(=O)O)c(=O)c2cc(F)c(N3CCNC(C)C3)c(F)c21 (centres unmarked)", "units text": "%", "inhibition at 100 µM": 0}
{"compound": "COc1ccc2c(c1)[C@]13CCCC[C@@H]1[C@H](C2)N(C)CC3 [Dextromethorphan hydrobromide hydrate]", "units text": "%", "inhibition at 100 µM": 8.58}
{"compound": "NNC(=O)c1ccncc1", "units text": "%", "inhibition at 100 µM": 24.4}
{"compound": "CCN1CCCC1CNC(=O)c1cc(S(=O)(=O)CC)c(N)cc1OC (centres unmarked) [Amisulpride]", "units text": "%", "inhibition at 100 µM": 7.08}
{"compound": "N[C@@H](CS)C(=O)O [L-Cysteine HCl]", "units text": "%", "inhibition at 100 µM": 0}
{"compound": "CCC1(C)CC(=O)NC(=O)C1 [Bemegride]", "units text": "%", "inhibition at 100 µM": 0}
{"compound": "C[C@@H]1O[C@@H](OC[C@H]2O[C@@H](Oc3c(-c4ccc(O)c(O)c4)oc4cc(O)cc(O)c4c3=O)[C@H](O)[C@@H](O)[C@@H]2O)[C@H](O)[C@H](O)[C@H]1O", "units text": "%", "inhibition at 100 µM": 3.42}
{"compound": "CCN[C@@H]1C[C@H](N)[C@@H](O[C@H]2OC(CN)=CC[C@H]2N)[C@H](O)[C@H]1O[C@H]1OC[C@](C)(O)[C@H](NC)[C@H]1O [Netilmicin Sulfate]", "units text": "%", "inhibition at 100 µM": 0}
{"compound": "COc1ccccc1Oc1c(NS(=O)(=O)c2ccc(C(C)(C)C)cc2)nc(-c2ncccn2)nc1OCCO [Bosentan Hydrate]", "units text": "%", "inhibition at 100 µM": 0.962}
{"compound": "CCCc1ncc(C[n+]2ccccc2C)c(N)n1 [Amprolium HCl]", "units text": "%", "inhibition at 100 µM": 0}
{"compound": "C[C@H](CSC(=O)c1ccccc1)C(=O)N1C[C@@H](Sc2ccccc2)C[C@H]1C(=O)O", "units text": "%", "inhibition at 100 µM": 10.7}
{"compound": "CN(C)CCC=C1c2ccccc2C=Cc2ccccc21 [Cyclobenzaprine HCl]", "units text": "%", "inhibition at 100 µM": 3.24}
{"compound": "Cc1ccc(S(=O)(=O)NC(=O)NN2CC3CCC[C@@H]3C2)cc1 (stereo in doubt) [Gliclazide]", "units text": "%", "inhibition at 100 µM": 9.52}
{"compound": "Cc1ccc(C(=O)Nc2ccc(CN3CCN(C)CC3)c(C(F)(F)F)c2)cc1C#Cc1cnc2cccnn12", "units text": "%", "inhibition at 100 µM": 5.09}
{"compound": "CCCC(=O)O[C@]1(C(=O)COC(C)=O)CC[C@H]2[C@@H]3C[C@H](F)C4=CC(=O)C=C[C@]4(C)[C@@]3(F)[C@@H](O)C[C@@]21C [Difluprednate]", "units text": "%", "inhibition at 100 µM": 22.2}
{"compound": "COc1ccc2cc([C@H](C)C(=O)O)ccc2c1 [Naproxen Sodium]", "units text": "%", "inhibition at 100 µM": 0}
{"compound": "C[C@]12CC[C@@H]3c4ccc(O)cc4CC[C@H]3[C@@H]1CC[C@@H]2O", "units text": "%", "inhibition at 100 µM": 0}
{"compound": "Cc1nccn1CC1CCc2c(c3ccccc3n2C)C1=O (centres unmarked) [Ondansetron Hydrochloride Dihydrate]", "units text": "%", "inhibition at 100 µM": 0}
{"compound": "CO[C@H]1C(=O)[C@]2(C)[C@@H](OC)C[C@H]3OC[C@@]3(OC(C)=O)[C@H]2[C@H](OC(=O)c2ccccc2)[C@]2(O)C[C@H](OC(=O)[C@H](O)[C@@H](NC(=O)OC(C)(C)C)c3ccccc3)C(C)=C1C2(C)C", "units text": "%", "inhibition at 100 µM": 25.1}
